# Tested on: Klebsiella pneumoniae KPC-3
# METHOD_NOTES: MIC, CLSI broth microdilution
# Assay type: cell-based
# CONDITION_DESCRIPTION: KPC3, KPC-3, read-out: MIC
# Protocol: Gram-negative and Gram-positive bacterial strains used during the in vitro minimum inhibitory concentration (MIC) determination were obtained either from the American Type Culture Collection (ATCC) or from clinical specimens. […] Isolates were sub-cultured onto appropriate media and stocked in skim milk at −80° C. […] MICs for comparator agents were determined using custom-designed, in-house prepared 96-well broth microdilution panels.
OBSERVED_PROPERTY: MIC (µg/mL)

[[record]]
molecule = "Nc1nc(/C(=N/OC2(C(=O)O)CC3CCC(C2)O3)C(=O)N[C@H]2CON(C3(C(=O)O)C[C@H](N4C(=O)c5cc(O)c(O)nc5C4=O)C(=O)O3)C2=O)cs1 (stereo partly shown) [Cmpd 27]"
experimental_target = "Klebsiella pneumoniae KPC-3"
reported_measurement = 0.12

[[record]]
molecule = "Nc1nc(/C(=N/OC2(C(=O)O)CC3CCC(C2)O3)C(=O)N[C@H]2CON(C3(C(=O)O)C[C@H](N4C(=O)c5cc(O)c(O)cc5C4=O)C(=O)O3)C2=O)cs1 (stereo partly shown) [Cmpd 13]"
experimental_target = "Klebsiella pneumoniae KPC-3"
reported_measurement = 0.06

[[record]]
molecule = "Nc1nc(/C(=N/OC2(C(=O)O)CCC2)C(=O)N[C@H]2CON(C3(C(=O)O)C[C@H](N4C(=O)c5cc(O)c(O)cc5C4=O)C(=O)O3)C2=O)cs1 (stereo partly shown) [Cmpd 4]"
experimental_target = "Klebsiella pneumoniae KPC-3"
reported_measurement = 0.03

[[record]]
molecule = "Nc1nc(/C(=N/OC2(C(=O)O)CCOCC2)C(=O)N[C@H]2CON(C3(C(=O)O)C[C@H](N4C(=O)c5cc(O)c(O)nc5C4=O)C(=O)O3)C2=O)cs1 (stereo partly shown) [Cmpd 26]"
experimental_target = "Klebsiella pneumoniae KPC-3"
reported_measurement = 0.12

[[record]]
molecule = "Nc1nc(/C(=N/OC2(C(=O)O)CC2)C(=O)N[C@H]2CON(C3(C(=O)O)C[C@H](N4C(=O)c5cc(O)c(O)cc5C4=O)C(=O)O3)C2=O)ns1 (stereo partly shown) [Cmpd 18]"
experimental_target = "Klebsiella pneumoniae KPC-3"
reported_measurement = 0.06

[[record]]
molecule = "Nc1nc(/C(=N/OC2(C(=O)O)CCOCC2)C(=O)N[C@H]2CON(C3(C(=O)O)C[C@H](N4Cc5cc(O)c(O)cc5C4=O)C(=O)O3)C2=O)cs1 (stereo partly shown) [Cmpd 29]"
experimental_target = "Klebsiella pneumoniae KPC-3"
reported_measurement = 0.06

[[record]]
molecule = "CN1CCC(O/N=C(\\C(=O)N[C@H]2CON(C3(C(=O)O)C[C@H](N4C(=O)c5cc(O)c(O)cc5C4=O)C(=O)O3)C2=O)c2csc(N)n2)(C(=O)O)CC1 (stereo partly shown) [Cmpd 9]"
experimental_target = "Klebsiella pneumoniae KPC-3"
reported_measurement = 0.25


Reference for the values: patent US11780832B2
